All values here come from paper PMC11271967.

Recorded pKd, one value per entry.
systemName: AasS (Vibrio harveyi)
experimentNotes: Isothermal titration calorimetry (ITC), wild-type AasS
Assay type: binding
measurementSetup: AasS ~40 μM saturated with ATP 120 μM; ligand 600 μM in syringe; room temperature; read-out: dissociation constant (Kd)
Here pKd is given on a logarithmic scale as minus log10 of the concentration in mol/L.

{"compound": "CCCCCCCCCC(=O)OP(=O)(O)OCC1OC(n2cnc3c(N)ncnc32)C(O)C1O (centres unmarked) [C10-AMP, decanoyl-adenylate]", "systemName": "AasS (Vibrio harveyi)", "pKd": 7.19}

Query compound follows.
# input Fetch value of pKd on AasS (Vibrio harveyi) for `CCCCCCCCCC(=O)NS(=O)(=O)OC[C@H]1O[C@@H](n2cnc3c(N)ncnc32)[C@H](O)[C@@H]1O` .
# output 7.85

====

systemName: AasS
experimentNotes: In vitro enzymatic activity of AasS (acyl-ACP formation, conformationally-sensitive urea PAGE, ImageJ semi-quantitation)
Format: biochemical, Vibrio harveyi
measurementSetup: condition 1#; C10 80 μM; AasS 3 nM; read-out: Ki, order-of-addition experiment
recordedEndpoint: pKi
Here pKi is given on a logarithmic scale as minus log10 of the concentration in mol/L.

# input Fetch value of pKi on AasS for CCCCCCCCCC(=O)NS(=O)(=O)OC[C@H]1O[C@@H](n2cnc3c(N)ncnc32)[C@H](O)[C@@H]1O [C10-AMS] .
# output 6.17

====

systemName: AasS (Vibrio harveyi, UniProt Q00IB3)
Sequence (Q00IB3 entry or part of it): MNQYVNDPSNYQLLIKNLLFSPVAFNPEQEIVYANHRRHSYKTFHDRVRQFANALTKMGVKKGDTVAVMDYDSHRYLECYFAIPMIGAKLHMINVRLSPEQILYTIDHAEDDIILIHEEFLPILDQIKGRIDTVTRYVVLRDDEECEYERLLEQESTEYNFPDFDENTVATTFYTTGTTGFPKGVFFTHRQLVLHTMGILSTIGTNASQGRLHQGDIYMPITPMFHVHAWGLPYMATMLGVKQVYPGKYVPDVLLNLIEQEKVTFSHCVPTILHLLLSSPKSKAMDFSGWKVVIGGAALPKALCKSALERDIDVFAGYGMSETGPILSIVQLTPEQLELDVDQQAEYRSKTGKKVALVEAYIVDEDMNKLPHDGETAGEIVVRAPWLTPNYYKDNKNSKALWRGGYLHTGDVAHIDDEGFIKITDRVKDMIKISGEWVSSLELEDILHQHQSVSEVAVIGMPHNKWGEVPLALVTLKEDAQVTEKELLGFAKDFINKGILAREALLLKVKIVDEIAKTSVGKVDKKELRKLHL
experimentNotes: Isothermal titration calorimetry (ITC), wild-type AasS
Format: binding
Procedure: The assays of Isothermal titration calorimetry (ITC) were conducted to address the stoichiometry of AasS binding to its C10-AMS inhibitor and C10-AMP intermediate. Since both malic acid and pimelic acid are not substrates for AasS, the two dicarboxylic acids were assumed as negative controls in our ITC analysis. […] Next, the stoichiometry (N) and dissociation constant (Kd) were calculated. […]
recordedEndpoint: pKd
Here pKd is given on a logarithmic scale as minus log10 of the concentration in mol/L.

# input Provide one value: measured pKd of `CCCCCCCCCC(=O)O`
# output 7.26

====

systemName: AasS
experimentNotes: In vitro enzymatic activity of AasS (acyl-ACP formation, conformationally-sensitive urea PAGE, ImageJ semi-quantitation)
Format: biochemical, Vibrio harveyi
measurementSetup: condition 2#; C10 80 μM; AasS 3 nM; read-out: Ki, order-of-addition experiment
recordedEndpoint: Ki (µM)
Respond numerically; units are µM and should not be typed.

# input Provide one value: measured Ki of CCCCCCCCCC(=O)NS(=O)(=O)OC[C@H]1O[C@@H](n2cnc3c(N)ncnc32)[C@H](O)[C@@H]1O [C10-AMS]
# output 1.37
